# Test system: HCC-15
# Run description: relative viability (nuclei count vs DMSO), 5 days (fraction); higher = more cells survive
# Experimental setup: first compound 0.1 µM
Consider the cut-off 0.9. If the recorded relative viability is strictly smaller, the label is met; if not, the label is not met.

Please review the following examples before continuing.
CCN(CC)CCCCNc1ncc2cc(-c3cc(OC)cc(OC)c3)c(NC(=O)NC(C)(C)C)nc2n1 + O=C(CCCCCCC(=O)Nc1ccccc1)NO [Vorinostat] (partner 1 µM) | met
CCN(CC)CCCCNc1ncc2cc(-c3cc(OC)cc(OC)c3)c(NC(=O)NC(C)(C)C)nc2n1 + O=C(c1cc(Cc2n[nH]c(=O)c3ccccc23)ccc1F)N1CCN(C(=O)C2CC2)CC1 [Olaparib] (partner 8 µM) | met
CCN(CC)CCCCNc1ncc2cc(-c3cc(OC)cc(OC)c3)c(NC(=O)NC(C)(C)C)nc2n1 + COc1cccc2cc(-c3nc([C@H]4CC[C@H](C(=O)O)CC4)n4ncnc(N)c34)[nH]c12 [OSI-027] (partner 0.5 µM) | met

API: the following record is the query input.
relative viability strictly < 0.9 for this molecule? O=c1cc(N2CCOCC2)oc2c(-c3cccc4c3sc3ccccc34)cccc12 + CS(=O)(=O)N1CCN(Cc2cc3nc(-c4cccc5[nH]ncc45)nc(N4CCOCC4)c3s2)CC1 [Pictilisib] (partner 1 µM)
not met
